Reference for the values: PubChem BioAssay AID2060609

System: 855422-203-R-J1-PDC complex spheroids, viability;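 further: spheroids exposed to drugs for seven days before readout; 100% = DMSO vehicle control wells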
Assay: Anticancer human tumor 855422-203-R-J1-PDC patient-derived bladder carcinoma cell line growth inhibition [CLK]
Conditions: second compound 3.16 µM; first compound 10 µM; hits give low values
property_label: viability, T/C (%)
Please state the figure in %; there is no need to write the unit.

Consider the reported viability, T/C for these compounds:
compound: O=c1[nH]cc(F)c(=O)[nH]1 + CNC(=O)c1ccc(Nc2nc(OC3CCCC3)c3c(-c4ccc5nc(C)oc5c4)c[nH]c3n2)c(OC)c1
viability, T/C, %: 14.7
--
compound: Nc1ccccc1NC(=O)c1ccc(CNC(=O)OCc2cccnc2)cc1 + CN1CCN(c2cc(C(=O)Nc3cc4cc(-c5cnn(C)c5)ccc4cn3)ccn2)CC1
viability, T/C, %: 0.28
--
compound: CC(CO)NC(=O)c1cc(-c2ccc(Cl)cc2)nn(-c2cnn(C)c2)c1=O (configuration not stated) + CN1CCN(c2cc(C(=O)Nc3cc4cc(-c5cnn(C)c5)ccc4cn3)ccn2)CC1
viability, T/C, %: 0.53
--
compound: COC1C=CCC(C)C(C)S(=O)(=O)NC(=O)c2ccc3c(c2)N(CC2CCC21)CC1(CCCc2cc(Cl)ccc21)CO3 (configuration not stated) + CN1CCN(c2cc(C(=O)Nc3cc4cc(-c5cnn(C)c5)ccc4cn3)ccn2)CC1
viability, T/C, %: 0.15
--
compound: C=C(F)C(=O)N1CCN(c2nc(OCC3CCCN3C)nc3c2CCN(c2cccc4cccc(Cl)c24)C3)CC1CC#N (configuration not stated) + CN1CCN(c2cc(C(=O)Nc3cc4cc(-c5cnn(C)c5)ccc4cn3)ccn2)CC1
viability, T/C, %: 0.11
--
compound: COC1C=CCC(C)C(C)S(=O)(=O)NC(=O)c2ccc3c(c2)N(CC2CCC21)CC1(CCCc2cc(Cl)ccc21)CO3 (configuration not stated) + CNC(=O)c1ccc(Nc2nc(OC3CCCC3)c3c(-c4ccc5nc(C)oc5c4)c[nH]c3n2)c(OC)c1
viability, T/C, %: 23.3

State, in one line, measured viability, T/C of CC(=O)O[C@H]1C(=O)[C@@]2(C)[C@H]([C@H](OC(=O)c3ccccc3)[C@]3(O)C[C@H](OC(=O)[C@H](O)[C@@H](NC(=O)c4ccccc4)c4ccccc4)C(C)=C1C3(C)C)[C@]1(OC(C)=O)CO[C@@H]1C[C@@H]2O + CNC(=O)c1ccc(Nc2nc(OC3CCCC3)c3c(-c4ccc5nc(C)oc5c4)c[nH]c3n2)c(OC)c1
24.2

Report viability, T/C, nothing else, for this compound: C#Cc1c(F)ccc2cc(O)cc(-c3ncc4c(N5CC6CCC(C5)N6)nc(OCC56CCCN5CC(F)C6)nc4c3F)c12 (configuration not stated) + CNC(=O)c1ccc(Nc2nc(OC3CCCC3)c3c(-c4ccc5nc(C)oc5c4)c[nH]c3n2)c(OC)c1
13.3

Hello, please tell me recorded viability, T/C for this one: CC(CO)NC(=O)c1cc(-c2ccc(Cl)cc2)nn(-c2cnn(C)c2)c1=O (configuration not stated) + CNC(=O)c1ccc(Nc2nc(OC3CCCC3)c3c(-c4ccc5nc(C)oc5c4)c[nH]c3n2)c(OC)c1
20

For the compound CC(=O)O[C@H]1C(=O)[C@@]2(C)[C@H]([C@H](OC(=O)c3ccccc3)[C@]3(O)C[C@H](OC(=O)[C@H](O)[C@@H](NC(=O)c4ccccc4)c4ccccc4)C(C)=C1C3(C)C)[C@]1(OC(C)=O)CO[C@@H]1C[C@@H]2O + CN1CCN(c2cc(C(=O)Nc3cc4cc(-c5cnn(C)c5)ccc4cn3)ccn2)CC1 , give its reported viability, T/C.
0.37
